Each recorded value in this set is attributed to ChEMBL document CHEMBL2069282.

Answer each item with its documented pEC50.
- Tested on: Hepatitis C virus
- measurement.protocol: Antiviral activity against Hepatitis C virus subtype 1a replicons infected in human HuH7 cells assessed as reduction in viral RNA levels by Rt-PCR
- Assay type: functional, organism-based, Hepacivirus hominis
- condition.info: Huh-7
Reminder that pEC50 is minus the log10 of a molar concentration.

Param item = `C[C@@]1(O)[C@H](O)[C@@H](CO)O[C@H]1n1cc(-c2cccc3ccccc23)c2c(N)ncnc21` ; retrieve measured pEC50.
4.61

Cool, now `C[C@@]1(O)[C@H](O)[C@@H](CO)O[C@H]1n1cc(-c2ccccc2)c2c(N)ncnc21`
4.45

Cool, now `C[C@@]1(O)[C@H](O)[C@@H](CO)O[C@H]1n1cc(-c2cc3ccccc3o2)c2c(N)ncnc21`
5.21

Cool, now `Nc1ncnc2c1c(I)cn2[C@@H]1O[C@H](CO)[C@@H](O)[C@@H]1O`
5.86

Cool, now `Nc1ncnc2c1c(-c1ccsc1)cn2[C@@H]1O[C@H](CO)[C@@H](O)[C@@H]1F`
4.96

Cool, now `Nc1ncnc2c1c(-c1ccoc1)cn2[C@H]1C[C@H](O)[C@@H](CO)O1`
4.62

Cool, now `Nc1ncnc2c1c(-c1ccsc1)cn2[C@H]1C[C@H](O)[C@@H](CO)O1`
4.94

Cool, now `Nc1ncnc2c1c(-c1cccs1)cn2[C@@H]1O[C@H](CO)[C@@H](O)[C@@H]1F`
5.55
